Molecular target: Human ENaC δ, β and γ subunit (Homo sapiens, UniProt P51168+P51170+P51172)
Construct: expressed in transfected cells; host or cells: Xenopus laevis (African clawed frog) oocytes injected with cRNA
Sequence (P51172 1-802): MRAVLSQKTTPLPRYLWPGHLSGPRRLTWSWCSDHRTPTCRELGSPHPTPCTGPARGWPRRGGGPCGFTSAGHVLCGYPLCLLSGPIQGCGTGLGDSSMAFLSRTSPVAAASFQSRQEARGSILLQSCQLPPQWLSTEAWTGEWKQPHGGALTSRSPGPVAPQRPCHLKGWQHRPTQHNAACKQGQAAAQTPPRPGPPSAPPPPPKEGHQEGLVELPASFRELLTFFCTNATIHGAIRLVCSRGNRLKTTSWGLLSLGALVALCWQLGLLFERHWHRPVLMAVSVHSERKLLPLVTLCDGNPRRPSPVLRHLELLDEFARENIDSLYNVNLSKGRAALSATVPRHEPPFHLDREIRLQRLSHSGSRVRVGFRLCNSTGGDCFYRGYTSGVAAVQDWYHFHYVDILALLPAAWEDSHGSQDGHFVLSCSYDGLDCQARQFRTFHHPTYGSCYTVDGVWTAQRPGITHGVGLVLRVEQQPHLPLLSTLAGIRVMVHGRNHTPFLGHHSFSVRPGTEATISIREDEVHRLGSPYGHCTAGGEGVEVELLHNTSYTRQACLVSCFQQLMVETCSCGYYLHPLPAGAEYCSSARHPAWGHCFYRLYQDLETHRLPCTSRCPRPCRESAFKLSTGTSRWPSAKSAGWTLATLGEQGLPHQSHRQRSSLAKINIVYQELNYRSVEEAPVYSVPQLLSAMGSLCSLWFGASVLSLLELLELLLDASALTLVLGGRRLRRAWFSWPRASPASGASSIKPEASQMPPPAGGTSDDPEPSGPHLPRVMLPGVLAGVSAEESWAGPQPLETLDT
Sequence (P51168 1-640): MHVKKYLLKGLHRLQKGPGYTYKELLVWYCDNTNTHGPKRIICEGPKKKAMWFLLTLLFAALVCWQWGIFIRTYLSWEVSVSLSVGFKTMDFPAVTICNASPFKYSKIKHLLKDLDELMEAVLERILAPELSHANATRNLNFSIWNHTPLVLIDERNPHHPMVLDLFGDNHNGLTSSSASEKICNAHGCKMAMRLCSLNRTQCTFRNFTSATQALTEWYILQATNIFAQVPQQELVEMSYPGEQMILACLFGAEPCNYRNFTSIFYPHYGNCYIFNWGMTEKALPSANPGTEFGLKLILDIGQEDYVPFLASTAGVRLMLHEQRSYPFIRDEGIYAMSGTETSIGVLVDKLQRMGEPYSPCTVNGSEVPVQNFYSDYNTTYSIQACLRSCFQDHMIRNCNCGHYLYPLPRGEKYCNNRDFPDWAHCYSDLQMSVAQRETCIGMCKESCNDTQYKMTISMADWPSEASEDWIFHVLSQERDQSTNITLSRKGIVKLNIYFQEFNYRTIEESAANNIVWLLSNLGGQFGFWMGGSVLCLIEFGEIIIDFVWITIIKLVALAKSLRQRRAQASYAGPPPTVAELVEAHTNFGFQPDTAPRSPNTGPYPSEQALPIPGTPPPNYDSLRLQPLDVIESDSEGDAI
Sequence (P51170 1-649): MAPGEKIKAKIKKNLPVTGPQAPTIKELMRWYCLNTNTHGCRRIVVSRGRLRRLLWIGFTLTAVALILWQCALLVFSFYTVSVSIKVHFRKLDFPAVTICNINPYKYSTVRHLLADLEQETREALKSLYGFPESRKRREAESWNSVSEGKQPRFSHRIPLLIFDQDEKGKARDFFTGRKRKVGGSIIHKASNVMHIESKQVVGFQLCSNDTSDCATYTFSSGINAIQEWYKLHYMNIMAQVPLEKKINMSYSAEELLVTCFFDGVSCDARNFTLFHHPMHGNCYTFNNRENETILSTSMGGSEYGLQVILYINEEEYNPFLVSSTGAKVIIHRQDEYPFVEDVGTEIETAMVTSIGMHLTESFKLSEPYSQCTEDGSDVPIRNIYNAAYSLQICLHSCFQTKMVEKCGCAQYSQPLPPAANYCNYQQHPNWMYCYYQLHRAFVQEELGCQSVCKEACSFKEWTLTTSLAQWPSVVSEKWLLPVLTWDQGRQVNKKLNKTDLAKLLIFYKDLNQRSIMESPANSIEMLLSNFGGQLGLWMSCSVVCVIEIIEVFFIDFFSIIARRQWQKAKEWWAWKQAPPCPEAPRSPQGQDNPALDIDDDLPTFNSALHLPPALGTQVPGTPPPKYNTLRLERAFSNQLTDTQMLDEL
Assay: Measurement of ENaC activation potency (MED) in ENaC-expressing oocyte, Two Electrode Voltage Clamp
Type: cell-based
Conditions: minimum effective dose at which current started to increase; ENaC-expressing African clawed frog oocyte; smaller MED = higher ENaC activation potency
parameterMeasured: MED (µM)

compound	MED (µM)
C[C@@H](NC(=S)N[C@H](C)c1ccccc1)c1ccccc1	10

A = Cc1ccc(S(=O)(=O)Nc2cccc(CNC(=S)NCCc3ccccc3)c2)cc1
B = Oc1ccc(CNC(=S)NCCc2ccccc2)cc1O
C = COc1cccc(OC)c1/C=N/NC(=S)N[C@H](C)c1ccccc1
D = OC[C@H](NC(=S)NCCc1ccccc1)c1ccccc1
(Q) Reorder: MED, max to min. Note for the reader: the ranking is given by listing the labels in the order requested.
(A) C, A, D, B

a = CC(C)(C)OC(=O)Nc1cccc(CNC(=S)NCCc2ccccc2)c1
b = O[C@@H](CNC(=S)NCc1ccccc1)c1ccccc1
c = COC(=O)c1ccccc1/C=N/NC(=S)N[C@H](C)c1ccccc1
d = Oc1ccc(CCNC(=S)NCc2ccccc2)cc1
(Q) Reorder: MED, max to min. Note for the reader: the ranking is given by listing the labels in the order requested.
(A) c, a, d, b

I = S=C(NCCc1ccccc1)N[C@H](COCc1ccccc1)c1ccccc1
II = FC(F)(F)c1ccc(CNC(=S)NCCc2ccccc2)cc1
III = Oc1cccc(CNC(=S)NCCc2ccccc2)c1
(Q) Reorder: MED, max to min. Note for the reader: the ranking is given by listing the labels in the order requested.
(A) II, I, III
(II: 30 µM, I: 10 µM, III: 1 µM)

* * *

Molecular target: Human ENaC δ, β and γ subunit (Homo sapiens, UniProt P51168+P51170+P51172)
Construct: expressed in transfected cells; host or cells: Xenopus laevis (African clawed frog) oocytes injected with cRNA
Experiment: Measurement of ENaC activation potency (MED) in ENaC-expressing oocyte, Two Electrode Voltage Clamp
Format: cell-based
Conditions: minimum effective dose at which current started to increase; ENaC-expressing African clawed frog oocyte; smaller MED = higher ENaC activation potency
Description: ENaC activation current value, namely, the inward current in ENaC-expressing oocyte was measured as follows. According to the method described in Motonao Nakamura, Takao Shimizu: Experiment of African clawed frog oocyte, Experimental Medicine Vol. 11, No. 3, 224-232 (1993), oocyte was collected from African clawed frog, […], and the current value was measured by a Two Electrode Voltage Clamp technique. […]
# MED per record follows

Some entries whose results are on file:
molecule	testSystem	MED
S=C(NCCc1ccccc1Cl)NCc1ccccc1	Human ENaC δ, β and γ subunit (Homo sapiens, UniProt P51168+P51170+P51172)	3 to 10 µM
C[C@@H](NC(=S)NCC(O)c1ccccc1O)c1cccc(O)c1 (stereo partly drawn)	Human ENaC δ, β and γ subunit (Homo sapiens, UniProt P51168+P51170+P51172)	0.06 to 0.1 µM
C[C@@H](NC(=S)NC(Cc1ccccc1O)C(=O)O)c1cccc(O)c1 (stereo partly drawn)	Human ENaC δ, β and γ subunit (Homo sapiens, UniProt P51168+P51170+P51172)	0.1 to 0.3 µM

Entry C[C@@H](NC(=S)NCCc1ccccc1C(=O)O)c1cccc(O)c1 : MED on Human ENaC δ, β and γ subunit (Homo sapiens, UniProt P51168+P51170+P51172) = 0.06 to 0.1 µM

Entry S=C(NCCc1ccccn1)NCc1ccccc1 : MED on Human ENaC δ, β and γ subunit (Homo sapiens, UniProt P51168+P51170+P51172) = 3 µM

Entry COC(=O)c1cc(O)ccc1NC(=S)N(C)CCc1ccccc1 : MED on Human ENaC δ, β and γ subunit (Homo sapiens, UniProt P51168+P51170+P51172) = 3 µM

* * *

target: Human ENaC δ, β and γ subunit (Homo sapiens, UniProt P51168+P51170+P51172); construct: expressed in transfected cells; host or cells: Xenopus laevis (African clawed frog) oocytes injected with cRNA; test: Measurement of ENaC activation potency (MED) in ENaC-expressing oocyte, Two Electrode Voltage Clamp; type: cell-based; details: minimum effective dose at which current started to increase; ENaC-expressing African clawed frog oocyte; smaller MED = higher ENaC activation potency
parameterMeasured: MED (µM)

Some entries whose results are on file:
compound	MED [µM]
CCC[C@@H](NC(=S)NCCc1ccccc1O)c1ccccc1 [Example 99]	10
S=C(NCCc1c[nH]c2ccccc12)Nc1ccccc1 [Example 34]	10
OC[C@@H](Cc1ccccc1)NC(=S)NCc1ccccc1 [Example 52]	1
S=C(CCCc1ccccc1)NCc1ccccc1 [Example 80, N-benzyl-4-phenylbutanethioamide]	10
Oc1cc2c(cc1O)CN(C(=S)NCCc1ccccc1)CC2 [Example 41]	3
CS(=O)(=O)Nc1cccc(CNC(=S)NCCc2ccccc2)c1 [Example 86]	1

A = S=C(NCc1ccccc1)N1CCc2ccccc2C1 [Example 27]
B = C[C@@H](NC(=S)NNCc1ccccc1O)c1ccccc1 [Example 90]
C = Oc1cc(O)cc(CNC(=S)NCCc2ccccc2)c1 [Example 68]
(Q) Reorder: MED, max to min. Note for the reader: the ranking is given by listing the labels in the order requested.
(A) A, C, B
(A: 10 µM, C: 3 µM, B: 1 µM)
